Data origin, for the record: ChEMBL document CHEMBL1125259

Hi there, I'd appreciate the recorded Activity (c.p.m. 50ul-1) for every entry that follows.
Biological target: Human immunodeficiency virus type 1 reverse transcriptase (Human immunodeficiency virus 1)
Test: Compounds were evaluated for anti-RT activity at 7 days of culture
Format: functional
Give your answer as a number; write no unit.

QUERY: Fill in the blank: the reported Activity (c.p.m. 50ul-1) of Cc1cn([C@H]2C[C@H](N=[N+]=[N-])[C@@H](COP(=O)(O)OC[C@H]3OC(O)[C@@H](O)[C@@H](O)[C@@H]3O)O2)c(=O)[nH]c1=O (some centres not stated) is ____.
RESULT: 24000

QUERY: Fill in the blank: the reported Activity (c.p.m. 50ul-1) of CCCCCCCCCCCCCCCCOP(=O)(OC[C@H]1OC(O)[C@@H](O)[C@@H](O)[C@@H]1O)OC[C@H]1OC(n2cc(C)c(=O)[nH]c2=O)C[C@@H]1N=[N+]=[N-] (some centres not stated) is ____.
RESULT: 18000

QUERY: Fill in the blank: the reported Activity (c.p.m. 50ul-1) of Cc1cn([C@H]2C[C@H](N=[N+]=[N-])[C@@H](COP(=O)(O)OC[C@H]3OC(O)[C@H](O)[C@@H](O)[C@@H]3O)O2)c(=O)[nH]c1=O (some centres not stated) is ____.
RESULT: 19000

QUERY: Fill in the blank: the reported Activity (c.p.m. 50ul-1) of "Cc1cn([C@H]2C[C@H](N=[N+]=[N-])[C@@H](CO)O2)c(=O)[nH]c1=O" is ____.
RESULT: 5000

QUERY: Fill in the blank: the reported Activity (c.p.m. 50ul-1) of CCCCCCCCCCCCCCCCOP(=O)(OC[C@H]1OC(O)[C@H](O)[C@@H](O)[C@@H]1O)OC[C@H]1OC(n2cc(C)c(=O)[nH]c2=O)C[C@@H]1N=[N+]=[N-] (some centres not stated) is ____.
RESULT: 8000

QUERY: Fill in the blank: the reported Activity (c.p.m. 50ul-1) of "Cc1cn([C@H]2C[C@H](N=[N+]=[N-])[C@@H](COP(=O)(O)OCCO[C@H]3O[C@H](CO)[C@@H](O)[C@H](O)[C@@H]3O)O2)c(=O)[nH]c1=O" is ____.
RESULT: 47000

QUERY: Fill in the blank: the reported Activity (c.p.m. 50ul-1) of CCCCCCCCCCCCCCCCOP(=O)(OCCO[C@H]1O[C@H](CO)[C@@H](O)[C@H](O)[C@@H]1O)OCC1OC(n2cc(C)c(=O)[nH]c2=O)CC1N=[N+]=[N-] (some centres not stated) is ____.
RESULT: 81000

* * *

Biological target: Human immunodeficiency virus type 1 reverse transcriptase (Human immunodeficiency virus 1)
Test: Compound ability to inhibit the production of HIV reverse transcriptase (RT) in culture supernatant of monocytic U937 on at 7 days at a concentration 1 uM
Assay type: functional
measurementKind: Activity (c.p.m. 50ul-1)
Give your answer as a number; write no unit.

QUERY: Fill in the blank: the reported Activity (c.p.m. 50ul-1) of Cc1cn([C@H]2C[C@H](N=[N+]=[N-])[C@@H](CO)O2)c(=O)[nH]c1=O [ZIDOVUDINE] is ____.
RESULT: 36000

QUERY: Fill in the blank: the reported Activity (c.p.m. 50ul-1) of "Cc1cn([C@H]2C[C@H](N=[N+]=[N-])[C@@H](COP(=O)(O)OCCO[C@H]3O[C@H](CO)[C@@H](O)[C@H](O)[C@@H]3O)O2)c(=O)[nH]c1=O" is ____.
RESULT: 306000

QUERY: Fill in the blank: the reported Activity (c.p.m. 50ul-1) of Cc1cn([C@H]2C[C@H](N=[N+]=[N-])[C@@H](COP(=O)(O)OC[C@H]3OC(O)[C@@H](O)[C@@H](O)[C@@H]3O)O2)c(=O)[nH]c1=O (stereo partly drawn) is ____.
RESULT: 425000

* * *

Hi there, I'd appreciate the recorded EC50 for every entry that follows.
Test system: CCRF-CEM
Experiment: Concentration that reduced by 50% the HIV induced CPE (cytopathic effect) on day 7.
Type: functional
Conditions: Homo sapiens, 168 h, read-out: ED50 (the source's name)
Lab book: enter the figure in nM, no units written.

QUERY: Fill in the blank: the reported EC50 of Cc1cn([C@H]2C[C@H](N=[N+]=[N-])[C@@H](COP(=O)(O)OC[C@H]3OC(O)[C@H](O)[C@@H](O)[C@@H]3O)O2)c(=O)[nH]c1=O (some centres not stated) is ____.
RESULT: 200

QUERY: Fill in the blank: the reported EC50 of Cc1cn([C@H]2C[C@H](N=[N+]=[N-])[C@@H](COP(=O)(O)OC[C@H]3OC(O)[C@@H](O)[C@@H](O)[C@@H]3O)O2)c(=O)[nH]c1=O (some centres not stated) is ____.
RESULT: 130

QUERY: Fill in the blank: the reported EC50 of CCCCCCCCCCCCCCCCOP(=O)(OCCO[C@H]1O[C@H](CO)[C@@H](O)[C@H](O)[C@@H]1O)OCC1OC(n2cc(C)c(=O)[nH]c2=O)CC1N=[N+]=[N-] (some centres not stated) is ____.
RESULT: 180

QUERY: Fill in the blank: the reported EC50 of "Cc1cn([C@H]2C[C@H](N=[N+]=[N-])[C@@H](COP(=O)(O)OCCO[C@H]3O[C@H](CO)[C@@H](O)[C@H](O)[C@@H]3O)O2)c(=O)[nH]c1=O" is ____.
RESULT: 160

QUERY: Fill in the blank: the reported EC50 of CCCCCCCCCCCCCCCCOP(=O)(OC[C@H]1OC(O)[C@@H](O)[C@@H](O)[C@@H]1O)OC[C@H]1OC(n2cc(C)c(=O)[nH]c2=O)C[C@@H]1N=[N+]=[N-] (some centres not stated) is ____.
RESULT: 140

QUERY: Fill in the blank: the reported EC50 of Cc1cn([C@H]2C[C@H](N=[N+]=[N-])[C@@H](CO)O2)c(=O)[nH]c1=O [ZIDOVUDINE] is ____.
RESULT: 120

QUERY: Fill in the blank: the reported EC50 of CCCCCCCCCCCCCCCCOP(=O)(OC[C@H]1OC(O)[C@H](O)[C@@H](O)[C@@H]1O)OC[C@H]1OC(n2cc(C)c(=O)[nH]c2=O)C[C@@H]1N=[N+]=[N-] (some centres not stated) is ____.
RESULT: 180

* * *

Molecular target: Human immunodeficiency virus type 1 reverse transcriptase (Human immunodeficiency virus 1)
Test: Compound ability to inhibit the production of HIV reverse transcriptase (RT) in culture supernatant of CEM-CL13 on at 15 days at a concentration 1 uM
Type: functional
measurementKind: Activity (c.p.m. 50ul-1)
Give your answer as a number; write no unit.

QUERY: Fill in the blank: the reported Activity (c.p.m. 50ul-1) of "Cc1cn([C@H]2C[C@H](N=[N+]=[N-])[C@@H](CO)O2)c(=O)[nH]c1=O" is ____.
RESULT: 600

QUERY: Fill in the blank: the reported Activity (c.p.m. 50ul-1) of CCCCCCCCCCCCCCCCOP(=O)(OC[C@H]1OC(O)[C@H](O)[C@@H](O)[C@@H]1O)OC[C@H]1OC(n2cc(C)c(=O)[nH]c2=O)C[C@@H]1N=[N+]=[N-] (some centres undefined) is ____.
RESULT: 750

QUERY: Fill in the blank: the reported Activity (c.p.m. 50ul-1) of CCCCCCCCCCCCCCCCOP(=O)(OC[C@H]1OC(O)[C@@H](O)[C@@H](O)[C@@H]1O)OC[C@H]1OC(n2cc(C)c(=O)[nH]c2=O)C[C@@H]1N=[N+]=[N-] (some centres undefined) is ____.
RESULT: 500

QUERY: Fill in the blank: the reported Activity (c.p.m. 50ul-1) of CCCCCCCCCCCCCCCCOP(=O)(OCCO[C@H]1O[C@H](CO)[C@@H](O)[C@H](O)[C@@H]1O)OCC1OC(n2cc(C)c(=O)[nH]c2=O)CC1N=[N+]=[N-] (some centres undefined) is ____.
RESULT: 5500

* * *

Target: Human immunodeficiency virus type 1 reverse transcriptase (Human immunodeficiency virus 1)
Experiment: Compound ability to inhibit the production of HIV reverse transcriptase (RT) in preinfected PBL (peripheral blood lymphocytes) at 10 days at a concentration 5 uM
Assay type: functional
Hi there, I'd appreciate the recorded Activity (c.p.m. 50ul-1) for every entry that follows.

QUERY: Fill in the blank: the reported Activity (c.p.m. 50ul-1) of Cc1cn([C@H]2C[C@H](N=[N+]=[N-])[C@@H](COP(=O)(O)OC[C@H]3OC(O)[C@H](O)[C@@H](O)[C@@H]3O)O2)c(=O)[nH]c1=O (stereo partly drawn) is ____.
RESULT: 798

QUERY: Fill in the blank: the reported Activity (c.p.m. 50ul-1) of "Cc1cn([C@H]2C[C@H](N=[N+]=[N-])[C@@H](CO)O2)c(=O)[nH]c1=O" is ____.
RESULT: 984

QUERY: Fill in the blank: the reported Activity (c.p.m. 50ul-1) of CCCCCCCCCCCCCCCCOP(=O)(OC[C@H]1OC(O)[C@H](O)[C@@H](O)[C@@H]1O)OC[C@H]1OC(n2cc(C)c(=O)[nH]c2=O)C[C@@H]1N=[N+]=[N-] (stereo partly drawn) is ____.
RESULT: 36400
